The values you see were collected from patent US6448262B1.

For each record, write down the corresponding SAW Eggs rating.
# System: Spodoptera eridania, eggs-southern armyworm
# ASSAY NAME: Southern armyworm eggs (SAW-Eggs) treated diet test
# Assay type: in vivo
# STUDY CONDITIONS: 3000 ppm; mortality counts after 7 days

Prompt: Given COC(=O)CSc1nc2ncccc2s1 [Example 4] , state its recorded SAW Eggs rating.
Completion: 0

Prompt: Please do the same for CCOC(=O)C(C)Sc1nc2ncccc2s1 (stereo not drawn) [Example 6] as well.
Completion: 9

Prompt: Could you do the same for FC(F)(Br)Sc1nc2ncccc2s1 [Example 7] , please?
Completion: 9

Prompt: And C=CCSc1nc2ncccc2s1 [Example 2] ?
Completion: 0

Prompt: Also need FC(F)Sc1nc2ncccc2s1 [Example 8] , thanks.
Completion: 9

Prompt: Another: FC(F)=C(F)CCSc1nc2ncccc2s1 [Example 1]
Completion: 8
